Where do the numbers come from? From patent US20240174727A1.

Molecular target: T1, human NPRA (human, UniProt P16066 33-1061)
T1 sequence (looked up): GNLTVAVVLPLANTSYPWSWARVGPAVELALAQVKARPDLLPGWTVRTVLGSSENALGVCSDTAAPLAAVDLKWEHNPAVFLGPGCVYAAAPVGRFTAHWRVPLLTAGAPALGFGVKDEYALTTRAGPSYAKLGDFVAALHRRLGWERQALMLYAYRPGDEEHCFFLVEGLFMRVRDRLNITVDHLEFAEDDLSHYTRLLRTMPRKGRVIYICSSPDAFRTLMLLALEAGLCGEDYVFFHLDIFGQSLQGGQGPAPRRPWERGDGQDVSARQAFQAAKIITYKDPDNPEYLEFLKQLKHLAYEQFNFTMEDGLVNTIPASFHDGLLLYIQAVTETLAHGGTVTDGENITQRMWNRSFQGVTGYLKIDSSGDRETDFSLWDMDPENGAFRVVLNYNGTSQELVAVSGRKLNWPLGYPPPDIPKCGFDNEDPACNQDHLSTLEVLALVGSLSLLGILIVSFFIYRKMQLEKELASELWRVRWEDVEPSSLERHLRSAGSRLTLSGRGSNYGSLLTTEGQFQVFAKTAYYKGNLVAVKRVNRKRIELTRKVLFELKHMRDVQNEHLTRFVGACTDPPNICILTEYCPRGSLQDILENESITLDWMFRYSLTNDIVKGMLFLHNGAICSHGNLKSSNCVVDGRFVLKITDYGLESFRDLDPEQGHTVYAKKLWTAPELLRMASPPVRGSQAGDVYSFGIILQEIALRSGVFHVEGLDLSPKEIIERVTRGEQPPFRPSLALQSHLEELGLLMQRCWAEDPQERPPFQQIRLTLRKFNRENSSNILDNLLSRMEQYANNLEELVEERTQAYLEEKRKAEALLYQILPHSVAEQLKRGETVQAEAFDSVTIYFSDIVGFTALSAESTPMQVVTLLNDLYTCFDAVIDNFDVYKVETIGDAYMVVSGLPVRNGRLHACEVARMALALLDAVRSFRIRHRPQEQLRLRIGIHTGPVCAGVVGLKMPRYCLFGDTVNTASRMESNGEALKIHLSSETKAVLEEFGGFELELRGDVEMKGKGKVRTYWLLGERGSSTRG
Experiment: cell-based or functional assay
Numbered stars: 1 amine (or outer) side, 2 acyl side, 3 side chain; on linkers, the order of the positions; unused ones are H or OH. Bridge positions count the residues as written; N and C are the ends. Square brackets hold non-standard residues; d marks the D form. * marks the point of attachment. thioacetal = thioacetal linkage between two cysteines (intrachain bond at the bracketed Cys); C20 diacid = O=C(O)CCCCCCCCCCCCCCCCCCC(=O)*; γGlu = O=C(O)[C@H](CCC(=O)[*:2])N[*:1]; βAla = NCCC(=O)O
// values below are reported cGMP Assay (EC50, pM) w/BSA
Kindly provide the numeric value in pM only, without the unit symbol.

// known answers, use as guide
INSERT INTO measurements (binder, readout_unit, experimental_result) VALUES
  ('XEKEKEKGSXRRSSCFGGRIDRIGAQSGLGCNSFRY (HOOC-(CH2)18-CO-(γGlu)-EKEKEKGS-4Pal-RRSS[CFGGRIDRIGAQSGLGC]NSFRY-NH2; disulfide linkage between the bracketed Cys) [Example 11]', 'pM', 24400),
  ('SXRRSSCFGGRIDRIGHQSGLGCPSFRHGGPPSXKPPPK (HOOC-(CH2)18-CO-(γGlu)-EKEKEKG-PEG24-S-4Pal-RRSS[CFGGRIDRIGHQSGLGC]PSFRHGGPPS-Aib-KPPPK-NH2; thioacetal linkage between the bracketed Cys) [Example 84]', 'pM', 9730);

Now for another entry.
Exercise: Requested field: cGMP Assay (EC50, pM) w/BSA. Item: {C20 diacid}-[γGlu]EKEKEKGEK[βAla]RSSCFGGRIDRIGHYSGLGCPSFRHGGPSSGAPPPS-NH2 (bridge 15-31 via thioacetal) [Example 70]
Solution: 92500
